biological target: Mast/stem cell growth factor receptor Kit (Homo sapiens)
Sequence (P10721 whole entry): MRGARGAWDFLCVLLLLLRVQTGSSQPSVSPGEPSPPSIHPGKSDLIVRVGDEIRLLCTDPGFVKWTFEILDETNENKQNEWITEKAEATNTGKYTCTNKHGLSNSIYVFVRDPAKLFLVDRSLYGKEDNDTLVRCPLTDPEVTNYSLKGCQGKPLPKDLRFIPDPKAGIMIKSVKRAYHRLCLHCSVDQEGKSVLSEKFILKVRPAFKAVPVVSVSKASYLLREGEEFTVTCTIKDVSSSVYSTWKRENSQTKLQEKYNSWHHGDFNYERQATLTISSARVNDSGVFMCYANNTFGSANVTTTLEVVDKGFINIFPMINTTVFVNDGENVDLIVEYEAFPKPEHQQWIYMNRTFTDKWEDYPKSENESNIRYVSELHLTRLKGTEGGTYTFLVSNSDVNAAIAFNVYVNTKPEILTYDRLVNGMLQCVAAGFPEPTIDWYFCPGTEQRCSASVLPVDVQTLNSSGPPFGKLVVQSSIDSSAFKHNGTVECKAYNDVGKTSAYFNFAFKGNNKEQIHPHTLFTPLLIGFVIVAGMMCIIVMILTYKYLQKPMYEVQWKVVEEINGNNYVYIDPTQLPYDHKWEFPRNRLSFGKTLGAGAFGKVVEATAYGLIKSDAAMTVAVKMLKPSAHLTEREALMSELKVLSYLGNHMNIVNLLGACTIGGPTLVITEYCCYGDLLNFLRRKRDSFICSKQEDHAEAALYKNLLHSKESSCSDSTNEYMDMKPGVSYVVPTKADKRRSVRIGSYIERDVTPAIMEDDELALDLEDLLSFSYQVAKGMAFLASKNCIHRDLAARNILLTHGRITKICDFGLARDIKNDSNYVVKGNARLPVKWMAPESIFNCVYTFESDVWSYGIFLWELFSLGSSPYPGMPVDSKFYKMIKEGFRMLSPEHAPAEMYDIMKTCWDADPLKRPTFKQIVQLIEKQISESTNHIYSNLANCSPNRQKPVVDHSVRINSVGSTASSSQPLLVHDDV
measured_quantity: IC50 (nM)
One number for each entry, in nM.

Entry `C=CC(=O)Nc1ccc(-c2ccc(NC(=O)Nc3cccc(Cl)c3)cc2)cn1` ; IC50 = 68.9

###

molecular target: Epidermal growth factor receptor (Homo sapiens)
Sequence (P00533 whole entry): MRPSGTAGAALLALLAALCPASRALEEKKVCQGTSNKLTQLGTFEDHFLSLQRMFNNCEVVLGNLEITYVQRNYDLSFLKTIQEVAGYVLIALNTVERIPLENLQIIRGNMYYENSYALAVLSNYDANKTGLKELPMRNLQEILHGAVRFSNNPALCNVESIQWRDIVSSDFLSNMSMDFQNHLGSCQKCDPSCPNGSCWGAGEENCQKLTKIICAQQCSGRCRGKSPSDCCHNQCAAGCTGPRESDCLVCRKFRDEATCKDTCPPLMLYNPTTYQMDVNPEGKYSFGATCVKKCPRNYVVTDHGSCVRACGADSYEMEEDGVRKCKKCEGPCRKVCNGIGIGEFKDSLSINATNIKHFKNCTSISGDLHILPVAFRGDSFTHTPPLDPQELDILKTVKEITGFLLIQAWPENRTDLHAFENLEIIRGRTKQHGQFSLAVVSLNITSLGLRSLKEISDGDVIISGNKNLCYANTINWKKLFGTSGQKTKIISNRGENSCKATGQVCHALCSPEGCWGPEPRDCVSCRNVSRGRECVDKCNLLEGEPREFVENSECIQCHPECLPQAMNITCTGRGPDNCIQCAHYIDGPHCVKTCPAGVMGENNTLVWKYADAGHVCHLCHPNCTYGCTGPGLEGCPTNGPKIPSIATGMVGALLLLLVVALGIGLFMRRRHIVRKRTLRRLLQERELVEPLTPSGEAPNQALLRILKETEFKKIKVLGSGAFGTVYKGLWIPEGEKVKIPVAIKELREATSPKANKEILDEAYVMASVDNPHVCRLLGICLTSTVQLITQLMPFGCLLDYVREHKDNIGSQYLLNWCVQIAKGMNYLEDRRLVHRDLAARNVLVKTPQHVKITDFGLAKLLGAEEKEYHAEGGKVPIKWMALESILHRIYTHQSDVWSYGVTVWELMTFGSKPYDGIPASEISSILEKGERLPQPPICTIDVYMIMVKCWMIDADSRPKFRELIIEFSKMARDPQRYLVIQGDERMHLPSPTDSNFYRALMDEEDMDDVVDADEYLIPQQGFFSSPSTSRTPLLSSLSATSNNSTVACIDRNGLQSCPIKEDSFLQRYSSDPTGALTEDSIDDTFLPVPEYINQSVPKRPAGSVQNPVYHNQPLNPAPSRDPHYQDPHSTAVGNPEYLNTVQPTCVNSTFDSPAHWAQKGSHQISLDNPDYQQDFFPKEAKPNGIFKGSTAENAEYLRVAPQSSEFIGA
measured_quantity: pIC50
One number for each entry, as −log10 of the molar value.

Entry `C=CC(=O)Nc1ccc(-c2ccc(NC(=O)Nc3cccc(Cl)c3)cc2)cn1` ; pIC50 = 8.06

###

target: Vascular endothelial growth factor receptor 3 (Homo sapiens, UniProt P35916)
Sequence (P35916 whole entry): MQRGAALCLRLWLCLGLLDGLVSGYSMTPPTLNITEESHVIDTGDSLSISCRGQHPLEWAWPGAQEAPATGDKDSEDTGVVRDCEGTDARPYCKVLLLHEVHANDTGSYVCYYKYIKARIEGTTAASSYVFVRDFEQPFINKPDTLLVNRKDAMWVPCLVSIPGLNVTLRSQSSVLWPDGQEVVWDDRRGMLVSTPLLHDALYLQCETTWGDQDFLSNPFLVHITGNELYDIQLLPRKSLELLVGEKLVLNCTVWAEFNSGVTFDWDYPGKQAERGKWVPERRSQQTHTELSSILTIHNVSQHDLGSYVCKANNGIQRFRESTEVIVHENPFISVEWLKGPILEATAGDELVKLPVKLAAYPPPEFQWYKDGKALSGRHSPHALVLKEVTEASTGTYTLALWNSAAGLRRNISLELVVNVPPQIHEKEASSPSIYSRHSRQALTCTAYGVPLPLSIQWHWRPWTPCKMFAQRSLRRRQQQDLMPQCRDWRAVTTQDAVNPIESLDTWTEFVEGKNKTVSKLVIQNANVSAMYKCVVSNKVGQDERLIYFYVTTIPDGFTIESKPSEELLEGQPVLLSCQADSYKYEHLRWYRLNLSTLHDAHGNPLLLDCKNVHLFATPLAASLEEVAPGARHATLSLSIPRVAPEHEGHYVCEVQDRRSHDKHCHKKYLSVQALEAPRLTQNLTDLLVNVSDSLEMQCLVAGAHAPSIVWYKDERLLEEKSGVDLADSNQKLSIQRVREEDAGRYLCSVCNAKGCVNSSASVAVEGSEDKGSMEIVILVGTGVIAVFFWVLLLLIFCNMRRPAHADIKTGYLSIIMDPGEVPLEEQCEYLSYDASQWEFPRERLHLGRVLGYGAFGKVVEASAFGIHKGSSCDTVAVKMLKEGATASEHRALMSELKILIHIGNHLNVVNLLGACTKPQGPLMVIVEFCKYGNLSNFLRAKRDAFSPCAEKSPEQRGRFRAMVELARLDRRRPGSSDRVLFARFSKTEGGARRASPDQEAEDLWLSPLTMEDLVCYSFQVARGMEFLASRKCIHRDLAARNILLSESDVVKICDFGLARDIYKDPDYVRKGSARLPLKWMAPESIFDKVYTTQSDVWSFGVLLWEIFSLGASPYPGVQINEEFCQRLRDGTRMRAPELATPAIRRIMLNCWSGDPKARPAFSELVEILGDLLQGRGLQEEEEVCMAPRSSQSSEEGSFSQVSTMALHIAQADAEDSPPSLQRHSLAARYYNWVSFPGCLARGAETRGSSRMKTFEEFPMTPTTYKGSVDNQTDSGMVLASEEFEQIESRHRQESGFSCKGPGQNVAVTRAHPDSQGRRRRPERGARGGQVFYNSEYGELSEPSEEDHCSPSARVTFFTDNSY
measured_quantity: pIC50
One number for each entry, as −log10 of the molar value.

Entry `C=CC(=O)Nc1ccc(-c2ccc(NC(=O)Nc3cccc(Cl)c3)cc2)cn1` ; pIC50 = 7.35
